B1: Hairpin Ribozyme (parent)
chain: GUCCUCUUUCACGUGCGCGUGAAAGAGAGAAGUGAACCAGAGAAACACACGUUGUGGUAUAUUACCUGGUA

# Variants of: B1
# TEST NAME: self-cleavage, relative activity (ratio to wild type); higher = more cleavage; co-transcriptional
For each entry below, report its self-cleavage value.
Give only the figure.

Exam item: Tell me the measured self-cleavage of C12U U62G , please.
Marked response: 0.235

Exam item: Tell me the measured self-cleavage of A23U G42A , please.
Marked response: 0.214

Exam item: Tell me the measured self-cleavage of C16U U33G , please.
Marked response: 0.148

Exam item: Tell me the measured self-cleavage of U33C A41C , please.
Marked response: 0.114

Exam item: Tell me the measured self-cleavage of G19C A49C , please.
Marked response: 0.0455

Exam item: Tell me the measured self-cleavage of U14A A26U , please.
Marked response: 0.503

Exam item: Tell me the measured self-cleavage of A26C C50A , please.
Marked response: 0.117

Exam item: Tell me the measured self-cleavage of C10U G68U , please.
Marked response: 0.189

Exam item: Tell me the measured self-cleavage of U8C A44G , please.
Marked response: 0.0935

Exam item: Tell me the measured self-cleavage of A30U C46U , please.
Marked response: 0.0965

Exam item: Tell me the measured self-cleavage of A47C U63G , please.
Marked response: 0.104

Exam item: Tell me the measured self-cleavage of C18U U58C , please.
Marked response: 1.17

Exam item: Tell me the measured self-cleavage of G34A A59U , please.
Marked response: 0.203

Exam item: Tell me the measured self-cleavage of G15A A71C , please.
Marked response: 1.29

Exam item: Tell me the measured self-cleavage of G13C C65G , please.
Marked response: 0.256

Exam item: Tell me the measured self-cleavage of C3A G21C , please.
Marked response: 0.489

Exam item: Tell me the measured self-cleavage of G25C G54U , please.
Marked response: 0.245

Exam item: Tell me the measured self-cleavage of A23G G25A , please.
Marked response: 0.413

Exam item: Tell me the measured self-cleavage of G32C C48G , please.
Marked response: 0.121

Exam item: Tell me the measured self-cleavage of U52G C66U , please.
Marked response: 0.474

Exam item: Tell me the measured self-cleavage of A59G U70G , please.
Marked response: 0.161

Exam item: Tell me the measured self-cleavage of A26G G27U , please.
Marked response: 0.121
